Target: T1, human IL-11 (human, UniProt P20809 22-199)
T1 construct: In the ELISAs this is recombinant human IL-11 coated on the plate (expressed in CHO cells as Fc-tagged and tag-free versions); In the fibroblast assays it is the IL-11 produced by human fibroblasts after TGFβ1 stimulation; also called recombinant human IL-11 (GenScript Cat. No. Z03108-1); interleukin 11
T1 sequence (looked up): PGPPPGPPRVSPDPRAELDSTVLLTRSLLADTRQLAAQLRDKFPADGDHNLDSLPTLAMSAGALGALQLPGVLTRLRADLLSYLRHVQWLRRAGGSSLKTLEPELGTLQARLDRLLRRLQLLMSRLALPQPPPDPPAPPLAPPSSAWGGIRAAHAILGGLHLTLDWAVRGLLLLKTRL
Experiment: EC50 from the indirect ELISA titrations of FIGS. 28A-28F on plate-coated recombinant human IL-11 (five-parameter fit), ng/ml is the concentration unit of FIG. 28 and paragraph 502
Overview of reported EC50 across a group of binders:

{"BINDER": "YU46-G8 (Fc fusion, not shown: a dimerising Fc or GST; small tags and cut ends, tested as scFv-Fc (human IgG1); also called #54) VH: EVQLVESGGGVVQPGRSLRLSCAASGFSLGSYGMHWVRQAPGKGLEWVAVISYDGSNKYYADSVKGRFTISRDNSKNTLYLQMNSLRAEDTAVYYCAKGSYYFDYWGQGTLVTVSS VL: DIQMTQSPSSLSASVGDRVTITCRASQGSSSYLAWYQQKPGKAPKLLIYAASSLQSGVPSRFSGSGSGTDFTLTISSLQPEDFATYYCQQSYSTPLYTFGQGTKLEIK", "UNIT_DESCRIPTOR": "µg/mL", "EC50": 0.0323}
{"BINDER": "YU45-C11/A10 (Fc fusion, tested as scFv-Fc (human IgG1); also called #6) VH: EVQLLESGGGVVQPGRSLRLSCAASGFTFSSYAMHWVRQAPGEGLEWVAVISYDGSNKYYADSVKGRFTISRDNAKDSLYLQMNSLRDEDTAVYYCARRGYFDYWGQGTLVTVSS VL: QSALTQPASVSGSPGQSITISCTGTSSDVGGYNYVSWYQQHPGKAPKLMIYDVSNRPSGVSNRFSGSKSGNTASLTISGLQAEDEADYYCSSYTSSSTVVFGGGTKLTVL", "UNIT_DESCRIPTOR": "µg/mL", "EC50": 0.0677}
{"BINDER": "YU45-H3 (Fc fusion, tested as scFv-Fc (human IgG1); also called #25) VH: EVQLVESGGGVVQPGRSLRLSCAASGFTFSSYAMHWVRQAPGKGLEWVAVISYDGSNKYYADSVKGRLTISRDNSKNTLYLQMNSLRAEDTAVYYCARMVNLYYGDAFDIWGQGTMVTVSS VL: QSALTQPASVSGSPGQSITISCTGTSSDVGGYNYVSWYQQHPGKAPKLMIYDVSNRPSGVSNRFSGSKSGNTASLTISGLQAEDEADYYCSSYTSSSTVVFGGGTKLTVL", "UNIT_DESCRIPTOR": "µg/mL", "EC50": 0.126}
{"BINDER": "YU46-B6 (Fc fusion, not shown: a dimerising Fc or GST; small tags and cut ends, tested as scFv-Fc (human IgG1); also called #47) VH: QVQLVQSGAEVKKPGASVKVSCKASGYTFTSYGISWVRQAPGQGLEWMGWISAYNGNTNYAQKLQGRVTMTTDTSTSTAYMELRSLRSDDTAVYYCARVVAAARSYYYYMDVWGKGTTVTVSS VL: SSELTQDPAVSVALGQTVRITCQGDSLRGYYATWYQQKPGQAPVVVMYGNNNRPSGIPDRFSGSSSGNTASLTITGAQAEDEADYYCDSRGRSGDHWLFGGGTKLTVL", "UNIT_DESCRIPTOR": "µg/mL", "EC50": 0.222}
{"BINDER": "YU45-H11/D12 (Fc fusion, tested as scFv-Fc (human IgG1); also called #9) VH: EVQLLESGGGVVQPGRSRRLSCAASGFTFSSYGMHWVRQAPGKGLEWVAVISYDGSNKYYADSVKGRFTISRDNSKNTLYLQMNSLRAEDTAVYYCAKLYSGSSNFDYWGQGTLVTVSS VL: QSALTQPASVSGSPGQSITISCTGTSSDVGGYNYVSWYQQHPGKAPKLMIYDVSNRPSGVSNRFSGSKSGNTASLTISGLQAEDEADYYCSSYTSSSTWVFGGGTKLTVL", "UNIT_DESCRIPTOR": "µg/mL", "EC50": 0.0146}
